- System: T47D
- METHOD_NOTES: NCI tumour cell line growth inhibition, 48 h
Activity calls are given as the source filed them. No stated cut-off is given here; in the data, active = GI50 up to about 1.1 µM and inactive = higher.
As shown below, each of these molecules has a reported GI50 value.
MEASUREMENT_KIND: GI50

In [3]: df
Out[3]:
                                   molecule      reported_result
0  NC(C/C=C/P(=O)(O)O)C(=O)O (centres undefined)  > 100 µM (inactive)
1  COC(=O)[C@@H]1C[C@H]2OC(=O)CC[C@]2(C)O[C@H]1[C@H]1O[C@@](C)(O)CCC[C@H]1C   > 50 µM (inactive)
2   Cn1c(=O)oc2nc(-c3ccccc3)cc(C(F)(F)F)c21  > 100 µM (inactive)
3                 Cc1cc(=O)oc2c(C)c(O)ccc12  > 100 µM (inactive)
